# condition.notes: in isopropanol, 323.2 K
property.measured: solubility (mole fraction)
Answers are plain numbers.

Recorded solubility (mole fraction) for `COc1ccc(C(=O)O)cc1OC` , please?
0.0183

* * *

# condition.notes: in n-propanol, 278.37 K
property.measured: solubility (mole fraction)
Numbers only.

Recorded solubility (mole fraction) for `COc1ccc(C(=O)O)cc1OC` , please?
0.0027

* * *

# condition.notes: in water, 327.85 K
property.measured: solubility (mole fraction)
One number for each entry.

Recorded solubility (mole fraction) for `O=C(O)c1cc(O)c(O)c(O)c1` , please?
0.00523

* * *

# condition.notes: in water, 313.04 K
property.measured: solubility (mole fraction)

Recorded solubility (mole fraction) for `O=C(O)c1cc(O)c(O)c(O)c1` , please?
0.00244

* * *

# condition.notes: in ethyl acetate, 303.13 K
property.measured: solubility (mole fraction)
Give bare numbers.

Recorded solubility (mole fraction) for `COc1ccc(C(=O)O)cc1OC` , please?
0.0083

* * *

# condition.notes: in methyl acetate, 313.15 K
property.measured: solubility (mole fraction)
One number for each entry.

Recorded solubility (mole fraction) for `COc1ccc(C(=O)O)cc1OC` , please?
0.0131

* * *

# condition.notes: in 2-butanone, 293.32 K
property.measured: solubility (mole fraction)
Answers are plain numbers.

Recorded solubility (mole fraction) for `COc1ccc(C(=O)O)cc1OC` , please?
0.0104

* * *

# condition.notes: in n-butanol, 318.01 K
property.measured: solubility (mole fraction)
Answers are plain numbers.

Recorded solubility (mole fraction) for `COc1ccc(C(=O)O)cc1OC` , please?
0.0134

Each recorded value in this set is attributed to BigSolDB 2.1.
